Please go through the items and note down their inhibition.
Biological target: Misshapen-like kinase 1 (Homo sapiens)
Conditions: at 1 µM
Description: GSK_PKIS: MINK mean inhibition at 1 uM [Nanosyn]
Answers are plain numbers, in %.

Below, each entry is followed by its recorded inhibition result.
NC(=O)c1cc(-c2ccc(F)cc2)cc(-c2ccncc2)c1N : 10
CS(=O)(=O)CCNCc1ccc(-c2ccc3ncnc(Nc4ccc(OCc5ccccc5)c(Br)c4)c3c2)o1 : 5.24
COC(=O)Nc1nc2ccc(Sc3ccc(NC(=O)Nc4cc(C(F)(F)F)ccc4F)cc3)cc2[nH]1 : 0.67

Please state, for each entry, its recorded inhibition.
1. Fc1ccc(-c2ncn(C3CCNCC3)c2-c2ccnc(Oc3ccc(F)c(F)c3)n2)cc1
2. CN(C)CCCNc1nccc(-c2c(-c3ccc(F)cc3)nn3cc(C(F)(F)F)ccc23)n1
3. COc1cc(Nc2ncc3c(C)nc(-c4cccc(Oc5ccccc5)c4)n3n2)cc(OC)c1OC
4. O=C1Nc2ccccc2/C1=C/Nc1ccc(-n2cncn2)cc1
5. COc1cc2ncn(-c3cc(OCCc4ccccc4)c(C(N)=O)s3)c2cc1OC

1. 12
2. 7.76
3. 2.84
4. 56.5
5. 18.8

Please state, for each entry, its recorded inhibition.
1. CCc1nccc2c1nc(-c1nonc1N)n2CC
2. C[C@@H](Oc1cc(-n2cnc3ccc(OCC4CCN(C)CC4)cc32)sc1C(N)=O)c1ccccc1Cl

[3.84, 10.1]
